test system: Aβ42; assay: Screening for γ-secretase-modulating activity, Method 1: Aβ42 sandwich ELISA in supernatant of SKNBE2 cells carrying APP 695 wild type (Tables 12a, 12b); format: cell-based; settings: Homo sapiens; Table 12b; Method 1, SKNBE2 cells carrying APP 695 wild type, cell supernatant ELISA; averaged IC50 values, percentage of control vs log concentration
Measured property: IC50 (nM)

1) COc1cc(Nc2cccn3cc(C4CCOCC4)nc23)ccc1-n1cnc(C)c1 | 85

I: COc1cc(Nc2cc(C(F)(F)F)cn3cc(COc4ccc(F)cc4)nc23)ccc1-n1cnc(C)n1
II: COc1cc(Nc2cccn3cc(-c4cc(C#N)ccc4C)nc23)ccc1-n1cnc(C)c1
IN: Which of these two has the smaller recorded IC50: I or II ? State the label of the item chosen.
OUT: I
(I: 42 nM, II: 89 nM)

---

system: Aβ42; assay: Demonstration of in vivo efficacy: Aβ42 lowering in brain after single oral dose (Table 13); settings: mouse brain soluble fraction, ELISA, mean, compared to untreated animals
Items are presented alongside their recorded Aβ42 (% Ctrl)_Mean.
Quick note: give the figure in % Ctrl, leave out the unit.

Please review the entries below; each comes with its answer.
1. COc1cc(Nc2cccn3cc(-c4ccccc4C)nc23)ccc1-n1cnc(C)n1 | 84
2. COc1cc(Nc2cccn3c(C)c(-c4ccccc4F)nc23)ccc1-n1cnc(C)c1 | 73
3. COc1cc(Nc2cccn3c(C)c(-c4ccccc4)nc23)ccc1-n1cnc(C)c1 | 66
4. COc1cc(Nc2cccn3c(C)c(-c4ccccc4Cl)nc23)ccc1-n1cnc(C)c1 | 62
5. COc1ccc(C)c(-c2cn3cccc(Nc4ccc(-n5cnc(C)n5)c(F)c4)c3n2)c1 | 96
6. COc1cc(Nc2cccn3cc(Cc4ccc(F)cc4)nc23)ccc1-n1cnc(C)c1 | 56
7. COc1cc(Nc2cccn3c(-c4ccc(F)cc4)cnc23)ccc1-n1cnc(C)c1 | 88

--- query ---
IN: Would you kindly share the measured Aβ42 (% Ctrl)_Mean for COc1cc(Nc2cccn3c(Cl)c(-c4ccc(F)cc4)nc23)ccc1-n1cnc(C)c1 ?
OUT: 100

---

test system: Aβtotal; assay: Demonstration of in vivo efficacy: Aβtotal lowering in brain after single oral dose (Table 13); details: mouse brain soluble fraction, mean, compared to untreated animals
Items are presented alongside their recorded Aβtotal (% Ctrl)_Mean.
Quick note: give the figure in % Ctrl, leave out the unit.

Please review the entries below; each comes with its answer.
1) COc1cccc(-c2cn3cccc(Nc4ccc(-n5cnc(C)c5)c(OC)c4)c3n2)c1 | 98
2) COc1nc(Nc2cccn3c(C)c(-c4ccccc4C(F)(F)F)nc23)ccc1-n1cnc(C)c1 | 102
3) COc1cc(Nc2cccn3c(C)c(-c4ccccc4F)nc23)ccc1-n1cnc(C)c1 | 101
4) COc1cc(Nc2cccn3cc(C)nc23)ccc1-n1cnc(C)c1 | 96
5) COc1cc(Nc2cccn3c(C)c(-c4ccccc4C(F)(F)F)nc23)ccc1-n1cnc(C)c1 | 86
6) Cc1ncn(-c2ccc(Nc3cccn4cc(-c5ccccc5C)nc34)cc2)n1 | 103
7) Cc1ncn(-c2ccc(Nc3cccn4c(C)c(-c5ccccc5Cl)nc34)cn2)n1 | 101
8) COc1ccc(C)c(-c2cn3cccc(Nc4ccc(-n5cnc(C)n5)c(F)c4)c3n2)c1 | 101

IN: Would you kindly share the measured Aβtotal (% Ctrl)_Mean for COc1cc(Nc2cccn3c(C)c(-c4ccccc4)nc23)ccc1-n1cnc(C)c1 ?
OUT: 96

IN: Would you kindly share the measured Aβtotal (% Ctrl)_Mean for COc1cc(Nc2cccn3cc(-c4ccc(F)cc4)nc23)ccc1-n1cnc(C)c1 ?
OUT: 103

IN: Would you kindly share the measured Aβtotal (% Ctrl)_Mean for Cc1ncn(-c2ccc(Nc3cccn4cc(-c5cc(C(F)(F)F)ccc5C)nc34)cc2F)n1 ?
OUT: 102
